Data provenance: ChEMBL document CHEMBL1144914

# Tested on: CCRF-CEM
# protocol_summary: Cytotoxicity in human leukemic CCRF-CEM cells.
# Type: functional, cell-based
Numbered stars: 1 amine (or outer) side, 2 acyl side, 3 side chain; on linkers, the order of the positions; unused ones are H or OH. Bridge positions count the residues as written; N and C are the ends. Square brackets hold non-standard residues; d marks the D form. Peptide text beside a SMILES is read from it. I, II: the chains in the order shown. Actinocin(1to9) = Cc1c2oc3c(C)ccc(C(=O)[*:2])c3nc-2c(C(=O)[*:1])c(N)c1=O; NMeV = CN[C@H](C(=O)O)C(C)C; Sar = CNCC(=O)O
# Lookup of reported log10(IC50) keyed by entry
Give log10 of IC50, with IC50 taken in nM.

The following compounds have reported results that may help.
>>> experimental_value("O=C(NCCN1CCOCC1)c1cccc2c(NCCCCNCCCNc3c4ccccc4nc4c(C(=O)NCCN5CCOCC5)cccc34)c3ccccc3nc12")
1.88
>>> experimental_value("O=C(NCCN1CCOCC1)c1cccc2c(NCCNCCNCCNc3c4ccccc4nc4c(C(=O)NCCN5CCOCC5)cccc34)c3ccccc3nc12")
2.85
>>> experimental_value("Cc1c2oc3c(C)ccc(C(=O)N[C@@H]4C(=O)N[C@H](C(C)C)C(=O)N5CCC[C@H]5C(=O)N(C)CC(=O)N(C)[C@@H](C(C)C)C(=O)O[C@@H]4C)c3nc-2c(C(=O)N[C@@H]2C(=O)N[C@H](C(C)C)C(=O)N3CCC[C@H]3C(=O)N(C)CC(=O)N(C)[C@@H](C(C)C)C(=O)O[C@@H]2C)c(N)c1=O [DACTINOMYCIN] (I: T[dV]P[Sar][NMeV] / II: T[dV]P[Sar][NMeV]; ester I:1-I:C, II:1-II:C; linker I:N-II:N via Actinocin(1to9))")
0.20
>>> experimental_value("O=C(NCCN1CCOCC1)c1cccc2c(NCCCNCCCNc3c4ccccc4nc4c(C(=O)NCCN5CCOCC5)cccc34)c3ccccc3nc12")
1.67

Data request, read-out log10(IC50), for COC(=O)[C@@H]1c2cc3c(c(O)c2[C@@H](O[C@@H]2O[C@@H](C)[C@H](OC)[C@@](C)(OC)[C@H]2OC)C[C@]1(C)O)C(=O)c1c(O)cc2c(c1C3=O)O[C@@H]1O[C@@]2(C)[C@H](O)[C@@H](N(C)C)[C@@H]1O [NOGALAMYCIN]
1.77
